- Tested target: T1, Source 1 VEGF-D, mature dimeric recombinant human VEGF-D (CSIRO) (human, UniProt O43915 89-205)
- T1 sequence: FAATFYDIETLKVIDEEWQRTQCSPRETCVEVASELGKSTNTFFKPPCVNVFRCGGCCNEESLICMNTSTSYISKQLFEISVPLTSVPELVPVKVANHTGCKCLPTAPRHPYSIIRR
- Assay summary: cell-based or functional assay
Each entry below carries its recorded rank in the VEGFR-3-Ba/F3 bioassay.
Numeric answer only, unit rank assumed.

Q) Which rank in the VEGFR-3-Ba/F3 bioassay reading was recorded for the binder humanized IgG antibody derived from clone HX28 (antibody, V domains shown, IgG) VH: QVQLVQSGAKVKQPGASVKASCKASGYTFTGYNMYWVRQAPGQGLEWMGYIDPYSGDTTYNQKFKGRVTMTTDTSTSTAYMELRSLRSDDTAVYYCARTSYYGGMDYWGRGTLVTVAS VL: DIVMTQTPLSSPVTLGQPASISCRSSQSLVHSNGNTYLHWLQQRPGQPPRLLIYKVSNRFSGVPGRFSGSGAGTDFTLKISRVEAEDVGVYYCSQSTHVPRTFGQGTKLEIKR ?
A) 1

Q) May I ask what rank in the VEGFR-3-Ba/F3 bioassay has been recorded for humanized IgG antibody derived from clone F61 (antibody, V domains shown, IgG) VH: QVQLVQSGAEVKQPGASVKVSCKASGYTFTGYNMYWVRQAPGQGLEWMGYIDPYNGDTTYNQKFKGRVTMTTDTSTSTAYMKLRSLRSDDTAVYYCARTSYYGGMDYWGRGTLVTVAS VL: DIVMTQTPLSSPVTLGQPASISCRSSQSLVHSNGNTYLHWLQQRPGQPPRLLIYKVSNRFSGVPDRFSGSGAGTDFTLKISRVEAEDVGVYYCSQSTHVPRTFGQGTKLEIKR ?
A) 5

Q) Could you share which rank in the VEGFR-3-Ba/F3 bioassay value was measured for humanized IgG antibody derived from clone HH41 (antibody, V domains shown, IgG; also called HH41#1; HH41#2) VH: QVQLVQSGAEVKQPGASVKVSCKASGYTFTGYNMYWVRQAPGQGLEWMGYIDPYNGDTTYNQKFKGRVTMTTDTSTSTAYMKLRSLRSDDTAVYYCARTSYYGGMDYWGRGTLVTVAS VL: DIVMTQTPLSSPVTLGQPASISCRSSQSLVHGNGNTYLHWLQQRPGQPPRLLIYKVSNRFSGVPDRFSGSGAGTDFTLKISRVEAEDVGVYYCSQSTHVPRTFGQGTKLEIKR ?
A) 8

Q) // returns reported rank in the VEGFR-3-Ba/F3 bioassay for input humanized IgG antibody derived from clone AW61 (antibody, V domains shown, IgG) VH: QVQLVQSGAEVKQPGASVKVSCKASGYTFTGYNMYWVRQAPGQGLEWMGYIDPYNGDTTYNQKFKGRATMTTDTSTSTAYMKLRSLRSDDTAVYYCARTSYYGGMDYWGRGTLVTVAS VL: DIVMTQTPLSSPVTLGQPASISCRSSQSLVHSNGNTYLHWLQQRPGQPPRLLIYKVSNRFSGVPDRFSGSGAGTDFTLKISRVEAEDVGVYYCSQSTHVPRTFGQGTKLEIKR
A) 6

Q) Returns the measured rank in the VEGFR-3-Ba/F3 bioassay for the input binder. Input: humanized IgG antibody derived from clone DI26 (antibody, V domains shown, IgG) VH: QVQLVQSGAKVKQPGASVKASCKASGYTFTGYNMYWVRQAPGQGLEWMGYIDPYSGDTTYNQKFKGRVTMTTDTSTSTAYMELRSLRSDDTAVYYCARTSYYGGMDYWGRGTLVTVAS VL: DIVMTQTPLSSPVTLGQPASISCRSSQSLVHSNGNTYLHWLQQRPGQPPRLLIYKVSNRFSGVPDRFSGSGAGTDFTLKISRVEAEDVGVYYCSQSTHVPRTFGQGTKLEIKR
A) 2
